Target: T1, RBFOX1 RRM (Homo sapiens, UniProt Q9NWB1 109-208)
T1 sequence: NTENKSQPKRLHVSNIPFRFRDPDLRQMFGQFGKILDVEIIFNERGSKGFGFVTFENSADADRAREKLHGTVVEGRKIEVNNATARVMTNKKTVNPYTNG
Assay: EMSA; HiTS-Eq, 1 nM pool, 10 min; buffer printed only for the single-RNA assays: 10 mM Tris pH 7.5, 150 mM NaCl, 3.4 mM EDTA, 0.001% NP-40, 30 C
Settings: tags: His6 N-terminal (pET28a); label: 5' 32P
Over roughly 16,000 sequences, “ka relative to ugcaugu” has its median near 0.0091; the highest 2% begin near 0.032. The list comes from a sample in which the highest values are over-represented; it also holds close analogues and randomly drawn sequences.
OBSERVATION_TYPE: binding signal

input: Requested field: binding signal. Item: CCGCUCA (DNA:RNA) RNA: GGGAGACCGGAAUUCAGAUUGUCCCCGCUCAUUAAAUCCCGUCGUAGCCACCA DNA 1: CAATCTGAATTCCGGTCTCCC DNA 2: TGGTGGCTACGACGGGATT
output: 0.00712 KA relative to UGCAUGU

Further cases:
input: Requested field: binding signal. Item: ACGCACG (DNA:RNA) RNA: GGGAGACCGGAAUUCAGAUUGUCCACGCACGUUAAAUCCCGUCGUAGCCACCA DNA 1: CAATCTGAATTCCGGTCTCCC DNA 2: TGGTGGCTACGACGGGATT
output: 0.0314 KA relative to UGCAUGU

input: Requested field: binding signal. Item: UCGCACG (DNA:RNA) RNA: GGGAGACCGGAAUUCAGAUUGUCCUCGCACGUUAAAUCCCGUCGUAGCCACCA DNA 1: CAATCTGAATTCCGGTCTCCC DNA 2: TGGTGGCTACGACGGGATT
output: 0.0586 KA relative to UGCAUGU

input: Requested field: binding signal. Item: GCACGUA (DNA:RNA) RNA: GGGAGACCGGAAUUCAGAUUGUCCGCACGUAUUAAAUCCCGUCGUAGCCACCA DNA 1: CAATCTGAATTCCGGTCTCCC DNA 2: TGGTGGCTACGACGGGATT
output: 0.0281 KA relative to UGCAUGU
